target: Dickkopf-related protein 1 (Homo sapiens) (UniProt O94907); test: small molecules binding DKK1 protein – biochemical, small-molecule microarray, 635 nm fluorescence scan, primary screen (AID 1106); conditions: higher = more signal;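 also: score merges emission near 667 nm with signal to noise over three replicate slides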
Sequence (O94907 whole entry, looked up): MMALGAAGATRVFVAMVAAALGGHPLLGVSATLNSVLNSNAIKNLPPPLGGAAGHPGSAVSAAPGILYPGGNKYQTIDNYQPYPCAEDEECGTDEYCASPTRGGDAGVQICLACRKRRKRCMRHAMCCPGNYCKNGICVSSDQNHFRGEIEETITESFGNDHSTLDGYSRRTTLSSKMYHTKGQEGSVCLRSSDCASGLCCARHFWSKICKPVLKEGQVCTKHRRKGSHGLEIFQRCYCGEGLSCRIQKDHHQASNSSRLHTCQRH
composite z-score class ranges: bin A = under -0.7, bin B = from -0.7 up to 0.4, bin C = 0.4 and over

INSERT INTO measurements (compound, class_name) VALUES
  ('COC(=O)[C@@]1(Cc2ccc(OC)cc2)[C@H]2c3cc(C(=O)N4CCCC4)n(CCc4ccc(O)c(OC)c4)c3C[C@H]2CN1C(=O)c1ccccc1', 'bin A'),
  ('COc1ccc([Si](C)(C)[C@@H]2[C@@H](CCO)O[C@]3(C(=O)N(Cc4ccc(N5C(=O)c6ccccc6Oc6ccccc65)cc4)c4ccccc43)[C@H]2C)cc1', 'bin A'),
  ('COCCOC(=O)N1C(=O)[C@@]2(c3cc(C#CCCO)ccc31)[C@H](C(=O)N1CCc3cc(OC)c(OC)cc3C1)[C@H]1C(=O)O[C@H](c3ccccc3)[C@H](c3ccccc3)N1[C@@H]2c1ccc(OCCO)cc1', 'bin C'),
  ('Cc1ccc(S[C@]2(C(=O)NCCN3CCOCC3)CC(=O)N(C3Cc4ccccc4C3)[C@@H]2c2ccc(CO)cc2)cc1', 'bin A'),
  ('COCCCNC(=O)[C@@]1(Cc2ccccc2CN=[N+]=[N-])N=C(c2ccc(OCCCO)cc2)O[C@H]1c1ccccc1N=[N+]=[N-]', 'bin B'),
  ('C=CCNC(=O)[C@H]1[C@@H]2C(=O)O[C@@H](c3ccccc3)[C@@H](c3ccccc3)N2[C@@H](c2ccc(OCCO)cc2)[C@]12C(=O)N(C(=O)OCCOC)c1ccc(C#CC3=CCCCC3)cc12', 'bin C'),
  ('COC(=O)[C@]1(Cc2ccccc2CN=[N+]=[N-])N=C(c2ccc(OCCCO)cc2)O[C@@H]1c1ccccc1', 'bin A'),
  ('CN(C)C(=O)[C@]1(Cc2ccccc2N=[N+]=[N-])N=C(c2ccc(OCCCO)cc2)O[C@@H]1c1ccccc1CN=[N+]=[N-]', 'bin C'),
  ('O=C(CS)NCCCCCNC(=O)[C@@H]1C[C@@H]2C(=O)N3CCC[C@H]3C(=O)N2[C@@H]1c1ccc(O)cc1', 'bin B'),
  ('CCCCC(=C=CC[C@H](O)c1cccc(OCCO)c1)C[C@H](O)COCc1ccccc1', 'bin B'),
  ('C=C(/C(=C/C[C@@H](OC(=O)c1ccncc1)c1ccccc1OCCO)c1cnc2ccccc2c1)C(C)C', 'bin C'),
  ('COC(=O)C(CC#Cc1ccc2c(c1)[C@]1(C(=O)N2)[C@H](c2ccc(O)cc2)N2[C@H](c3ccccc3)[C@H](c3ccccc3)OC(=O)[C@H]2[C@@H]1C(N)=O)C(=O)OC', 'bin A'),
  ('[N-]=[N+]=NCc1ccccc1C[C@]1(C(=O)NCCN2CCOCC2)N=C(c2ccc(OCCCO)cc2)O[C@H]1c1ccccc1', 'bin A'),
  ('C=CCOC(=O)[C@@H]1[C@H]2C(=O)O[C@H](c3ccccc3)[C@H](c3ccccc3)N2[C@H](c2ccc(OCCOC(=O)[C@@H]3C[C@@H]4C(=O)N[C@@H](CCCCNC(C)=O)C(=O)N4[C@@H]3c3ccc(O)cc3)cc2)[C@@]12C(=O)Nc1ccc(I)cc12', 'bin C'),
  ('COC(=O)c1ccc(OC)c(/C=C\CC(CCc2ccccc2)OC(=O)c2ccncc2)c1 (centres undefined)', 'bin C'),
  ('NCCCCCCNC(=O)[C@H]1C[C@H]2C(=O)N3CCC[C@H]3C(=O)N2[C@H]1c1ccc(O)cc1', 'bin C'),
  ('CCCCCCC#C[Si](O[C@H](c1ccccc1)c1cn(Cc2cccc(Cl)c2)nn1)(C(C)C)C(C)C', 'bin B'),
  ('[N-]=[N+]=Nc1ccccc1C[C@]1(C(=O)NCCN2CCOCC2)N=C(c2ccc(OCCCO)cc2)O[C@H]1c1ccccc1N=[N+]=[N-]', 'bin C');

----------
experiment: growth effects on S. cerevisiae YJM789 – YJM789 clinical isolate, OD600, 24 h, basal, primary screen (AID 1089); conditions: higher = more signal, called active from +8 up or from −8 down;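 also: growth of clinical yeast isolate S. cerevisiae YJM 789 seeded 1000 cells per well; test concentration not given here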
Readout Type: z-score

INSERT INTO results (molecule, observed_measurement) VALUES
  ('COc1cc(C(O)C2C=CC3C(=O)N(C)C(=O)C3N2NC(=O)OC(C)(C)C)cc(OC)c1OC (stereo not drawn)', 0.61),
  ('CN(C)C(=O)[C@@]1(CCC(=O)OC(C)(C)C)COC(c2ccc(OCCCO)cc2)=N1', -0.321),
  ('CO[C@H]1O[C@H](CO)[C@@H](OC(=O)Nc2cccc(F)c2)[C@H](OC(=O)Nc2ccc3c(c2)OCO3)[C@H]1OC(=O)Nc1ccc2c(c1)OCO2', 1.38),
  ('C=C(/C(=C/C[C@@H](OC(=O)c1ccncc1)c1ccccc1OCCO)c1cnc2ccccc2c1)C(C)C', -24.2),
  ('CC1C=C(CCCO)C=C(C(=O)OCCS(C)(=O)=O)C(C(=O)OCCS(C)(=O)=O)=CN1Cc1cccc(OC(F)(F)F)c1 (stereo not drawn)', -1.27),
  ('CCN(CC)c1ccc(N2CC=CC34O[C@@H]5/C=C\CCCOC(=O)C5[C@H]3C(=O)N(CCCCCO)[C@@H]4C2=O)cc1 (stereo partly drawn)', -0.177),
  ('[N-]=[N+]=NCc1ccccc1C[C@]1(C(=O)NCCN2CCOCC2)COC(c2ccc(OCCCO)cc2)=N1', -1.52),
  ('COCCCNC(=O)[C@@]1(Cc2ccccc2)COC(c2ccc(OCCCO)cc2)=N1', -1.29),
  ('C[C@]12C(=O)N(CCCCCO)[C@@H]3C(=O)N(c4ccc(Cl)cc4)CC=CC31O[C@@H]1/C=C\CCCOC(=O)C12 (stereo partly drawn)', -0.299),
  ('CC(C)=CCCC(C)=CC(O)C1C=CC2C(=O)N(c3ccccc3)C(=O)C2N1Nc1ccc([N+](=O)[O-])cc1 (stereo not drawn)', -0.706),
  ('C=C(COC)C(=O)CC[C@H](OC(=O)c1ccccc1-c1ccccc1C(=O)O)c1ccc(OCCO)cc1', -1.73),
  ('COC(=O)[C@@]1(Cc2ccc(F)cc2)[C@H]2c3cc(C(=O)N(C)C)n(CCSCCO)c3C[C@H]2CN1C(=O)c1ccccc1', 0.125),
  ('NC(=O)[C@@H]1[C@H]2C(=O)O[C@H](c3ccccc3)[C@H](c3ccccc3)N2[C@H](c2ccccc2OCCO)[C@@]12C(=O)Nc1ccc(C#CCCO)cc12', 0.566),
  ('O=C1C[C@@](C(=O)NCc2ccccc2)(c2ccc([N+](=O)[O-])cc2)[C@@H](c2ccc(CO)cc2I)N1C1CCCCC1', 1.2),
  ('COc1ccc([Si](C)(C)[C@@H]2[C@@H](CC(=O)N(CCO)Cc3ccccc3)O[C@]3(C(=O)N(C)c4c(Br)cc(C)cc43)[C@H]2C)cc1', -0.8),
  ('CC(C)C[C@@H]1NC(=O)[C@@]23C(=O)N[C@@H](Cc4ccccc4)C2[C@H](C)[C@@]2(C)O[C@H]2C3/C=C/C/C=C\CNC(=O)[C@@H]2CCCN2C1=O (stereo partly drawn)', 0.0289),
  ('CC(C)[Si](C#C[Si](C(C)C)(C(C)C)C(C)C)(O[C@H](C)c1cn(Cc2cccc(Cl)c2)nn1)C(C)C', 0.487),
  ('CC(C)CNC(=O)[C@@]1(C)c2ccccc2C(=O)N(Cc2ccccc2)[C@H]1c1ccc(CO)cc1', -1.79);

----------
Here the recorded z-score is given for each entry.
assay: resazurin metabolic signal in A549 cells – cell-based, resazurin fluorescence, 24 h, PK04 Diversity Set, profiling panel (AID 1171); conditions: A549 viability, higher = more signal, called active from +8 up or from −8 down; also: test concentration not given here
Readout Type: z-score

INSERT INTO assay_data (molecule, readout_type, observed_measurement) VALUES
  ('C=CCOc1ccc([C@@H]2CC=C(C(=O)OCC)[C@H](c3cccc(Br)c3)N2S(=O)(=O)c2ccc(C)cc2)cc1', 'z-score', -0.924),
  ('CCOc1cc(C(O)C2C=CC3C(=O)NC(=O)C3N2Nc2ccccn2)ccc1O (stereo not given)', 'z-score', -0.923),
  ('CN(C)CCCN1C(=O)[C@@]2(Cc3ccccc31)c1ccccc1C(=O)N(Cc1ccccc1)[C@H]2c1ccc(CO)cc1', 'z-score', 0.726),
  ('CC(C)[Si](C#C[Si](C(C)C)(C(C)C)C(C)C)(O[C@H](C)c1cn(Cc2cccc(Cl)c2)nn1)C(C)C', 'z-score', 1.15),
  ('COC(=O)[C@H]1N=C(c2ccc(OCCCO)cc2)O[C@H]1c1ccccc1CN=[N+]=[N-]', 'z-score', 2.65);

----------
experiment: COS7 lysate on small-molecule microarray, probe aHis, 635 nm (AID 1123); details: COS7 cell lysate, fluorescence, higher = more signal;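 also: z-score combines 667nm fluorescence intensity with signal-to-noise per printed compound spot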
Here the recorded composite z-score is given for each entry.
Readout Type: composite z-score

INSERT INTO results (molecule, observed_measurement) VALUES
  ('C#CCOC(=O)N[C@H](C=CCCCC)c1ccccc1', 3.67),
  ('COc1ccccc1CN1C(=O)c2ccccc2[C@@H](C(=O)NCC(C)C)[C@@H]1c1ccc(CO)cc1', 0.368),
  ('CCCC[C@@H](O)C1=C(COc2ccccc2)Cn2c(=O)n(-c3ccccc3)c(=O)n2[C@H]1CO', 0.725),
  ('COCCCNC(=O)[C@]1(Cc2ccccc2CN=[N+]=[N-])N=C(c2ccc(OCCCO)cc2)O[C@@H]1c1ccccc1CN=[N+]=[N-]', 2.28),
  ('COc1cccc(C[C@H]2C[C@@H](CO[Si](C(C)C)(C(C)C)C(C)C)N3C(=O)[C@]4(C(C)=O)O[C@]23[C@H]2C(=O)N(C)C(=O)[C@H]24)c1', 0.0217),
  ('COCC1=C([C@H](O)CCc2ccccc2)[C@H](CO)[C@@H]2C(=O)N(C)C(=O)[C@@H]2C1', -0.0175),
  ('COCCOC(=O)N1C(=O)[C@@]2(c3cc(C#CCCO)ccc31)[C@H](C(=O)NC[C@H](O)c1ccccc1)[C@H]1C(=O)O[C@H](c3ccccc3)[C@H](c3ccccc3)N1[C@@H]2c1ccccc1OCCO', 1.33),
  ('O=C1OCCC=C[C@H]2OC34C=CCN(Cn5nnc6ccccc65)C(=O)[C@H]3N(CCCCCO)C(=O)[C@@H]4C12 (stereo partly drawn)', 0.121);
